Each entry below carries its reported Activity.
Tested on: Salmonella enterica subsp. enterica
Assay: Antibacterial activity against bacterial sensory kinase PhoQ deficient Salmonella enterica serovar Typhimurium CS009 assessed as PhoQ-activating potential after 16 hrs by modified twofold broth microdilution method relative to wild type Salmonella enterica serovar Typhimurium ATCC 14028
Assay type: functional, Salmonella enterica subsp. enterica serovar Typhimurium
Where a SMILES comes first, the peptide text is derived from it.
Use µg/mL as the unit, but write only the number.

Sample answers from the record:
CC[C@H](C)[C@H](NC(=O)[C@H](CCCNC(=N)N)NC(=O)[C@H](Cc1c[nH]c2ccccc12)NC(=O)[C@H](CCCNC(=N)N)NC(=O)[C@@H](N)CCCNC(=N)N)C(=O)N[C@H](C(=O)N[C@H](C(=O)N[C@H](C(=O)N[C@@H](CCCNC(=N)N)C(=O)N[C@H](C(=O)N[C@@H](CCCNC(=N)N)C(=O)N[C@@H](CCCNC(=N)N)C(N)=O)C(C)C)[C@@H](C)CC)C(C)C)C(C)C (H-RRWRIVVIRVRR-NH2)
34.3
CC[C@H](C)[C@H](NC(=O)[C@H](CCCCN)NC(=O)[C@@H](NC(=O)[C@@H](NC(=O)[C@H](CCCNC(=N)N)NC(=O)[C@H](C)NC(=O)[C@H](CC(C)C)NC(=O)[C@@H](N)CCCNC(=N)N)[C@@H](C)CC)C(C)C)C(=O)N[C@@H](CCCNC(=N)N)C(=O)N[C@H](C(=O)N[C@@H](C)C(=O)N[C@@H](CCCNC(=N)N)C(N)=O)C(C)C (H-RLARIVKIRVAR-NH2)
55.7
CC[C@H](C)[C@H](NC(=O)[C@H](CCCNC(=N)N)NC(=O)[C@H](C)NC(=O)[C@H](CC(C)C)NC(=O)[C@@H](N)CCCNC(=N)N)C(=O)N[C@H](C(=O)N[C@H](C(=O)N[C@H](C(=O)N[C@@H](CCCNC(=N)N)C(=O)N[C@H](C(=O)N[C@@H](C)C(=O)NCC(N)=O)C(C)C)[C@@H](C)CC)C(C)C)C(C)C (H-RLARIVVIRVAG-NH2)
22.8

Please examine the following record next.
For the record CC[C@H](C)[C@H](NC(=O)[C@H](CCCNC(=N)N)NC(=O)[C@H](CCCNC(=N)N)NC(=O)[C@H](CC(C)C)NC(=O)[C@@H](N)CCCNC(=N)N)C(=O)N[C@H](C(=O)N[C@H](C(=O)N[C@H](C(=O)N[C@@H](CCCNC(=N)N)C(=O)N[C@H](C(=O)N[C@@H](C)C(=O)N[C@@H](CCCNC(=N)N)C(N)=O)C(C)C)[C@@H](C)CC)C(C)C)C(C)C (H-RLRRIVVIRVAR-NH2) , what value of Activity is listed for Salmonella enterica subsp. enterica? 7.3
